Tested on: UACC-257 melanoma
Test: NCI tumour cell line growth inhibition, 48 h; in the data active = GI50 below about 0.43 µM; inactive = the rest
Bench note: report the call from T for active, F for inactive

Ask: What call does the record list for `CC1(C)N=C(N)N=C(N)N1c1cccc(CCCCc2ccc(Cl)c(S(=O)(=O)F)c2)c1` ?
Result: F

Ask: Each compound tested received a call. Report the one for `COc1ccc(-c2oc3ncnc(N)c3c2-c2ccc(NC(=O)Nc3cc(C(F)(F)F)ccc3F)cc2)cc1` .
Result: F

Ask: Answer briefly: the call reported for `CC1(C)CC[C@]2(C(=O)NCCNCCN)CC[C@]3(C)C(=CC[C@@H]4[C@@]5(C)CCC(=O)C(C)(C)[C@@H]5CC[C@]43C)[C@@H]2C1` in this assay.
Result: F

Ask: Hello, I am checking results. What call was entered for `CCCCCCCCCCCCCCCCCC1=NC(C)(C)CN1C(C)(C)CO` ?
Result: F

Ask: In this assay, the call recorded for `NC(CCl)=NCC12CC3CC(CC(C3)C1)C2` was what?
Result: F

Ask: I would be grateful if you could indicate the recorded call for `CCOc1ccc(Nc2ccnc3cc(Cl)ccc23)cc1` .
Result: F

Ask: So what was the verdict on `O=c1cc(-c2ccccc2)oc2c(O)c(O)ccc12` in this test?
Result: F

Ask: Look up the recorded call for `CC[C@H](C)[C@H](NC(=O)c1ncccn1)C(=O)N(C)[C@H](C[C@@H](OC(C)=O)c1nc(C(=O)N[C@@H](Cc2ccccc2)C[C@H](C)C(=O)OC)cs1)C(C)C` in this test.
Result: F

Ask: # fetch the recorded call for `C/C(COc1ccc2oc(-c3ccccc3)cc(=O)c2c1)=N\O` here
Result: F

Ask: Assay outcome for `COc1ccc(OC)c(-c2cc(-c3ccc(Cl)cc3)nn2-c2ccccc2)c1` : what was it?
Result: F

Ask: Hi team, can someone confirm the assay call for `OCC#Cc1ccccc1C#Cc1ccc(C#Cc2ccccc2C#CCO)cc1` ?
Result: F

Ask: What call does the record list for `COc1cc(OCCCN2CCCC2)ccc1Nc1ncc(Cl)c(Nc2ccccc2P(C)(C)=O)n1` ?
Result: F

Ask: Assay result, entry `CCCCNC(=O)Oc1ccc(/C(=C(\C)c2ccc(OC)cc2)c2ccc(OCCN3CCCCC3)cc2)cc1` — outcome?
Result: F

Ask: Lab log entry: `FC(F)(F)c1cccc(Oc2ccc(Nc3ncnc4ccc(OCCCN5CCOCC5)cc34)cc2Cl)c1` — outcome as called in the assay?
Result: F

Ask: Entry `C=C[C@@H]1CCC/C=C/[C@@H]2C[C@H](O)C[C@H]2[C@H](O)/C=C/C(=O)O1` : call = ?
Result: T

Ask: GET /call?item= `COc1cc(-c2n/c(=C\c3c(O)[nH]c4ccccc34)cc3c2=Nc2ccccc2-3)ccc1F` returns the recorded outcome of this test.
Result: F

Ask: Assay outcome for `COc1cc(/C=C2\C(=O)Nc3ccc(Cl)cc32)cc(OC)c1OC` : what was it?
Result: F

Ask: Entry `[Mn+3].[O-][Cl+3]([O-])([O-])O.[O-]c1ccccc1C=NCCN1CC1.[O-]c1ccccc1C=NCCN1CC1` : call = ?
Result: F

Ask: Entry `O=C1/C(=C/c2ccc(Cl)cc2)N=C(c2ccccc2)N1c1cc(C(F)(F)F)ccc1Cl` : call = ?
Result: F

Ask: Write down the call the test reported for this compound. Item: CO[C@H]1/C=C/O[C@@]2(C)Oc3c(C)c(O)c4c(O)c(c(/C=N/N5C(C)CN(Cc6ccc(C#N)cc6)CC5C)c(O)c4c3C2=O)NC(=O)/C(C)=C\C=C\[C@H](C)[C@H](O)[C@@H](C)[C@@H](O)[C@@H](C)[C@H](OC(C)=O)[C@@H]1C (stereo not given in full)
Result: F

* * *

Test system: NCI-H23 lung
Test: NCI tumour cell line growth inhibition, 48 h
ASSAY_READOUT: log10 TGI (log10 of the value in µM)
Please keep in mind that the values are log10 of TGI expressed in µM.

Ask: Supply reported log10 TGI belonging to this molecule: `COc1ccc2c(c1)C(=O)/C(=C/c1ccc(O)cc1)O2`
Result: 1.54

Ask: Quote log10 TGI reported for `NC(CCl)=NCC12CC3CC(CC(C3)C1)C2` please.
Result: 0.62

Ask: Respond only with log10 TGI recorded for `O=C1NN(C(=O)c2ccccc2)C(c2ccc(Cl)c(Cl)c2)=C/C1=C\c1ccccc1[N+](=O)[O-]`
Result: 0.81

Ask: Please report log10 TGI for the following molecule: `Cc1cc(C)c([I+]c2c(C)cc(C)cc2C)c(C)c1`
Result: 0.26

Ask: Retrieve log10 TGI measured for `CCCCCCCC(=O)Nc1nc2[nH]c(CN3CCN(Cc4cccc(I)c4)CC3)c(CN3CCN(Cc4cccc(I)c4)CC3)c2c(=O)[nH]1` and print it.
Result: 0.27

Ask: Look up log10 TGI of `COc1ccc(NC(=O)c2ccc(C(F)(F)F)nc2Nc2ccc(Cl)cc2C)cc1Cl` and report it.
Result: 1.18

Ask: Read off the recorded log10 TGI for `COc1cc(/C=C/C(=O)c2ccccc2O)ccc1OCCCOc1cc2c(cc1OC)C(=O)N1CCC[C@H]1C=N2`
Result: -0.82

Ask: Supply recorded log10 TGI for CC[C@@]1(O)C(=O)OCc2c1cc1n(c2=O)Cc2c-1nc1ccccc1c2/C=N\NC(=O)C(N)Cc1ccc(O)cc1 (stereo not given in full) here.
Result: 0.26

Ask: Identify log10 TGI associated with the molecule `CCCCNC(=O)Oc1ccc(/C(=C(\C)c2ccc(OC)cc2)c2ccc(OCCN3CCCCC3)cc2)cc1`
Result: 1.33

Ask: Assign log10 TGI to the following record: `CC(C)(C)c1ccc(NS(=O)(=O)c2ccc(N)cc2)cc1`
Result: 1.83

Ask: Query log10 TGI for CCCCC1Nc2ccccc2-c2ccnc(Cl)c21 (stereo not given)
Result: 1.50

* * *

Tested on: SK-MEL-28 melanoma
Assay: NCI tumour cell line growth inhibition, 48 h; in the data active means GI50 below about 0.43 µM; inactive means the rest
Entry note: the call must match one of active, inactive

Ask: Could you check what this test reported for `CC(=O)CCc1ccc(Oc2c3ccccc3nc3occc23)cc1` ?
Result: inactive

Ask: Per the assay record, what outcome was assigned to C[N+]1(CCNP(=S)(NCC[N+]2(C)Cc3c(ccc4c3OCO4)C3C2c2cc4c(cc2C[C@@H]3O)OCO4)NCC[N+]2(C)Cc3c(ccc4c3OCO4)C3C2c2cc4c(cc2C[C@@H]3O)OCO4)Cc2c(ccc3c2OCO3)C2C1c1cc3c(cc1C[C@H]2O)OCO3 (stereo not given in full) ?
Result: inactive

Ask: Entry `NC(CCl)=NCC12CC3CC(CC(C3)C1)C2` : call = ?
Result: inactive

Ask: Please indicate how the test categorized `O=C1/C(=C/c2ccc(Cl)cc2)N=C(c2ccccc2)N1c1cc(C(F)(F)F)ccc1Cl` .
Result: inactive

Ask: Per the records of this test, what outcome belongs to `C=C[C@@H]1CCC/C=C/[C@@H]2C[C@H](O)C[C@H]2[C@H](O)/C=C/C(=O)O1` ?
Result: active

Ask: Assay outcome for `C#Cc1cccc(Nc2nc(C)nc3cc(NC(=O)CCl)ccc23)c1` : what was it?
Result: inactive

Ask: Hello, I am checking results. What call was entered for `CC1(C)CC[C@]2(C(=O)NCCNCCN)CC[C@]3(C)C(=CC[C@@H]4[C@@]5(C)CCC(=O)C(C)(C)[C@@H]5CC[C@]43C)[C@@H]2C1` ?
Result: inactive

Ask: Record request — test call for `C/C(COc1ccc2oc(-c3ccccc3)cc(=O)c2c1)=N\O`
Result: inactive

Ask: Can you look up the reported call for `COc1cc(OCCCN2CCCC2)ccc1Nc1ncc(Cl)c(Nc2ccccc2P(C)(C)=O)n1` for me?
Result: inactive

Ask: Tell me the recorded outcome of this test for `C[C@]12CC[C@@H]3c4ccc(O)cc4CC[C@H]3[C@@H]1CC(Cc1ccccc1)(Cc1ccccc1)C2=O` .
Result: inactive

Ask: Short answer needed: outcome of this test for `COc1cc(-c2n/c(=C\c3c(O)[nH]c4ccccc34)cc3c2=Nc2ccccc2-3)ccc1F` ?
Result: inactive

Ask: Answer briefly: the call reported for `CC[C@H](C)[C@H](NC(=O)c1ncccn1)C(=O)N(C)[C@H](C[C@@H](OC(C)=O)c1nc(C(=O)N[C@@H](Cc2ccccc2)C[C@H](C)C(=O)OC)cs1)C(C)C` in this assay.
Result: inactive

Ask: Give the logged outcome of this assay for the following molecule: `COc1ccc(-c2oc3ncnc(N)c3c2-c2ccc(NC(=O)Nc3cc(C(F)(F)F)ccc3F)cc2)cc1`
Result: inactive

Ask: Please state the recorded outcome for this molecule: `Cc1cccc2c(=O)c3c(sc12)c(NCCCN)nc1ccccc13`
Result: inactive

Ask: Hi, sorry to bother you, what did the test record for `CCOc1ccc(Nc2ccnc3cc(Cl)ccc23)cc1` ?
Result: inactive
